assayDetails: Aqueous solubility at 37° C. (HPLC of filtered suspension)
Format: physicochemical
conditionParameters: phosphate buffer with 0.9% w/v sodium chloride, aqueous buffer, thermodynamic from solid; buffer (i) phosphate buffer, pH 3.5, 0.9% w/v sodium chloride; 37° C.; 1 hour; read-out: concentration of QTX125 (solubility)
propertyMeasured: solubility at 1 h (µg/mL)
Quick reminder: number only, in µg/mL, skip the unit.

Reported solubility at 1 h ( O=C(NO)c1ccc(CNC(=O)c2[nH]c(-c3ccc(O)cc3)cc2-c2ccoc2)cc1 [QTX125 Form 2] ) = 0.77

====

assayDetails: Aqueous solubility at 37° C. (HPLC of filtered suspension)
Format: physicochemical
conditionParameters: phosphate buffer with 0.9% w/v sodium chloride, aqueous buffer, thermodynamic from solid; buffer (i) phosphate buffer, pH 3.5, 0.9% w/v sodium chloride; 37° C.; 4 hours; read-out: concentration of QTX125 (solubility)
propertyMeasured: solubility at 4 h (µg/mL)
The response must be a number in µg/mL with no trailing unit.

# molecule O=C(NO)c1ccc(CNC(=O)c2[nH]c(-c3ccc(O)cc3)cc2-c2ccoc2)cc1 [QTX125 Form 2] ; its solubility at 4 h = 0.15
